Target Of Assay: CD80-CD28 interaction (Homo sapiens)
Sequence (P33681 35-242 limits assumed): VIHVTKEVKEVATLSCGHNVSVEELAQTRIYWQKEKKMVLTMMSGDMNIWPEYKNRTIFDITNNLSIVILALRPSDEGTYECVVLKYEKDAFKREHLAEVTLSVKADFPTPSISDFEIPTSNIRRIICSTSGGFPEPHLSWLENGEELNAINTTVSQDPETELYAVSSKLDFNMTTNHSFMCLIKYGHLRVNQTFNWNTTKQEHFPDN
Protocol Text: Homogenous Time Resolved Fluorescence (HTRF) assay, cell free
Assay type: binding
Condition Details: cell free HTRF assay; concentration series 100 μM-1.7 nM; 4 hours at room temperature; read-out: Activity (EC50 in the HTRF assay)
Below: a set of entries, each annotated with reported EC50.

// below: answered compounds
>>> measurement("O=C(NC1CONC1=O)c1ccc(-n2[nH]c3c(nnc4ccccc43)c2=O)cc1 (stereo not drawn) [Example 267]")
"1 to 10 µM"
>>> measurement("O=C(NCCN1CCCC1)c1ccc(-n2[nH]c3c(nnc4ccccc43)c2=O)cc1 [Example 259]")
"< 1 µM"
>>> measurement("O=C(NCC1CCNCC1)Nc1ccc(-n2[nH]c3c(nnc4ccccc43)c2=O)cc1 [Example 290]")
"< 1 µM"

### Prompt Could you tell me which EC50 is on file for O=C(NC1CCN(CCC2CCCCC2)CC1)c1ccc(-n2[nH]c3c(nnc4c(F)cccc43)c2=O)cc1 [Example 336] ?
### Response < 1 µM

### Prompt Follow-up item: O=C(NCCc1cccs1)c1ccc(-n2[nH]c3c(nnc4ccccc43)c2=O)cc1 [Example 255]
### Response > 10 µM

### Prompt Follow-up item: O=C(NCc1cccc(F)c1)Nc1ccc(-n2[nH]c3c(nnc4ccccc43)c2=O)cc1 [Example 284]
### Response > 10 µM
